# System: Escherichia coli TOP10
# experimental_protocol: shrunken log2 fold change of peptide-encoding DNA abundance (4.5 h post-induction vs induction); higher = less antimicrobial activity (less host growth inhibition)
# test_conditions: time post-induction: 4.5 h; library: site-saturation at positions 5, 18, 19, 20
Measured shrunken log2 fold change by item
Please state the value as a number alone, without comment.

>  <biosequence>
RRIRDRPPRLPRPRPRPSPGPRP

>  <shrunken log2 fold change>
0.241

$$$$
>  <biosequence>
RRIRTRPPRLPRPRPRPQGWPRP

>  <shrunken log2 fold change>
0.704

$$$$

Record RRIRYRPPRLPRPRPRPAIAPRP , field shrunken log2 fold change: 0.0565

Record RRIRVRPPRLPRPRPRPKFMPRP , field shrunken log2 fold change: -0.0954

Record RRIRARPPRLPRPRPRPPGMPRP , field shrunken log2 fold change: 0.471

Record RRIRLRPPRLPRPRPRPQTRPRP , field shrunken log2 fold change: 0.08

Record RRIRFRPPRLPRPRPRPSNQPRP , field shrunken log2 fold change: 0.0631

====

Measured shrunken log2 fold change by item
# Test system: Escherichia coli TOP10
# experimental_protocol: shrunken log2 fold change of peptide-encoding DNA abundance (4.5 h post-induction vs induction); higher = less antimicrobial activity (less host growth inhibition)
# test_conditions: time post-induction: 4.5 h; library: site-saturation at positions 5, 18, 19, 20
Please state the value as a number alone, without comment.

>  <biosequence>
RRIRFRPPRLPRPRPRPRQPPRP

>  <measurement_type>
shrunken log2 fold change

>  <endpoint_value>
0.68

$$$$

Record RRIRIRPPRLPRPRPRPMKLPRP , field shrunken log2 fold change: -0.519

====

# System: Escherichia coli TOP10;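 also: peptides expressed intracellularly from a pBAD plasmid library in pooled LB shake-flask culture, induced with 0.3% L-arabinose, DNA abundance read by NGS, three biological replicates, DESeq2 with apeglm shrinkage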
# experimental_protocol: shrunken log2 fold change of peptide-encoding DNA abundance (4.5 h post-induction vs induction); higher = less antimicrobial activity (less host growth inhibition)
# test_conditions: time post-induction: 4.5 h; library: site-saturation at positions 5, 18, 19, 20
Measured shrunken log2 fold change by item

Worked examples follow.
>  <biosequence>
RRIRWRPPRLPRPRPRPGENPRP

>  <shrunken log2 fold change>
-0.0316

$$$$
>  <biosequence>
RRIRGRPPRLPRPRPRPAHNPRP

>  <shrunken log2 fold change>
0.157

$$$$
>  <biosequence>
RRIRHRPPRLPRPRPRPRREPRP

>  <shrunken log2 fold change>
0.217

$$$$
>  <biosequence>
RRIRHRPPRLPRPRPRPSGDPRP

>  <shrunken log2 fold change>
-0.107

$$$$
>  <biosequence>
RRIRQRPPRLPRPRPRPNQFPRP

>  <shrunken log2 fold change>
0.0334

$$$$

Record RRIRWRPPRLPRPRPRPQKRPRP , field shrunken log2 fold change: 0.00899

Record RRIRERPPRLPRPRPRPFACPRP , field shrunken log2 fold change: -0.433

Record RRIRNRPPRLPRPRPRPSDQPRP , field shrunken log2 fold change: 0.0574

Record RRIRIRPPRLPRPRPRPGGSPRP , field shrunken log2 fold change: -0.0491

Record RRIRARPPRLPRPRPRPEGMPRP , field shrunken log2 fold change: 1.2

Record RRIRHRPPRLPRPRPRPPGDPRP , field shrunken log2 fold change: 0.477

Record RRIRARPPRLPRPRPRPAVHPRP , field shrunken log2 fold change: 0.175

Record RRIRSRPPRLPRPRPRPNWEPRP , field shrunken log2 fold change: 0.015

Record RRIRNRPPRLPRPRPRPVQGPRP , field shrunken log2 fold change: 0.295

Record RRIRARPPRLPRPRPRPYSQPRP , field shrunken log2 fold change: -0.135

The reported measurements were obtained from the supplement of paper PMC9112550.
